Would you kindly list Trep Concentration (μM) 120 min for each of these compounds?
ASSAY: Stability in cryopreserved hepatocytes, dog
Just the number please, in µM, no unit attached.

-- ask Looking for the measured Trep Concentration (μM) 120 min of CCCCCC(CCC1C(O)CC2Cc3c(cccc3OCC(=O)O)CC21)OC(=O)c1ccc(O)cc1 (centres unmarked) , can you help?
-- reply 0.0129

-- ask What do we get for CCCCCC1CCC2C(CC3Cc4c(cccc4OCC(=O)O)CC32)OP(=O)(Oc2ccccc2)O1 (mixture of isomers) ?
-- reply 0.00339

-- ask # iterate: CCCCCC(CCC1C(O)CC2Cc3c(cccc3OCC(=O)O)CC21)OCc1oc(=O)oc1C (centres unmarked)
-- reply 0.482

-- ask Now this one: CCCCCC(CCC1C(O)CC2Cc3c(cccc3OCC(=O)O)CC21)OCCC (centres unmarked)
-- reply 0.00465

-- ask What do we get for CCCCCC(CCC1C(O)CC2Cc3c(cccc3OCC(=O)O)CC21)OC(=O)c1ccc(C)cc1 (centres unmarked) ?
-- reply 0.214

-- ask Same question for CCCCCC(CCC1C(O)CC2Cc3c(cccc3OCC(=O)O)CC21)Oc1ccccc1C(=O)O (centres unmarked) please.
-- reply 0

-- ask And what about the compound CCCCCC(CCC1C(O)CC2Cc3c(cccc3OCC(=O)O)CC21)OC(=O)CO (centres unmarked) ?
-- reply 0.404

-- ask Next entry: CCCCCC(CCC1C(O)CC2Cc3c(cccc3OCC(=O)O)CC21)OC(=O)C12CC3CC(CC(C3)C1)C2 (centres unmarked)
-- reply 0.236

Where these numbers come from: patent US12491170B2
